Hey, just so you know, these numbers are from patent US11345711B2.

Inh. (%) of Wee1 kinase enzyme activity listing for selected compounds.
Experimental target: Wee1 (h) (Homo sapiens)
Protocol description: Wee1 kinase (h) detection method, [γ-33P]-ATP filter assay
Assay type: biochemical
Condition details: C 0.01 μm compound

In: Endpoint output: Inh. (%) of Wee1 kinase enzyme activity of CN1Cc2cc(Nc3ncc4c(n3)N3CCN=C3N(c3c(Cl)cccc3Cl)C4=O)ccc2C2(CC2)C1 [Example 14] . Value?
Out: 12%

In: Endpoint output: Inh. (%) of Wee1 kinase enzyme activity of C[C@@H]1CN(c2ccc(Nc3ncc4c(n3)N3CCN=C3N(c3c(F)cccc3Cl)C4=O)cc2C(F)(F)F)C[C@H](C)N1C [Example 49] . Value?
Out: 43%

Further cases:
In: Endpoint output: Inh. (%) of Wee1 kinase enzyme activity of Cc1cc(Nc2ncc3c(n2)N2CCN=C2N(c2c(F)cccc2Cl)C3=O)ccc1N1C[C@@H](C)N(C(C)C)[C@@H](C)C1 [Example 53] . Value?
Out: 13%

In: Endpoint output: Inh. (%) of Wee1 kinase enzyme activity of Cc1cc(Nc2ncc3c(n2)N2CCN=C2N(c2c(F)cccc2Cl)C3=O)ccc1N1CCN(C(C)C)CC1 [Example 52] . Value?
Out: 111%

In: Endpoint output: Inh. (%) of Wee1 kinase enzyme activity of CN1CCN(c2ccc(Nc3ncc4c(n3)N3CCN=C3N(c3c(Cl)cccc3Cl)C4=O)cc2F)CC1 [Example 69] . Value?
Out: 24%

---

Inh. (%) of Wee1 kinase enzyme activity listing for selected compounds.
Experimental target: Wee1 (h) (Homo sapiens)
Protocol description: Wee1 kinase (h) detection method, [γ-33P]-ATP filter assay
Type: biochemical
Condition details: C 0.1 μm compound
Please respond with the number in % and leave the unit unwritten.

In: Endpoint output: Inh. (%) of Wee1 kinase enzyme activity of COc1cc(Nc2ncc3c(n2)N2CCN=C2N(c2c(F)cccc2Cl)C3=O)cc(F)c1N1CCN(C)CC1 . Value?
Out: 62

In: Endpoint output: Inh. (%) of Wee1 kinase enzyme activity of Cc1cc(Nc2ncc3c(n2)N2CCN=C2N(c2c(C)cccc2F)C3=O)cc(C)c1N1CCN(C)CC1 . Value?
Out: 73

In: Endpoint output: Inh. (%) of Wee1 kinase enzyme activity of CN(C)C1CCN(c2ccc(Nc3ncc4c(n3)N3CCN=C3N(c3c(F)cccc3Cl)C4=O)cc2Cl)CC1 . Value?
Out: 84

Consider now this further compound.
In: Endpoint output: Inh. (%) of Wee1 kinase enzyme activity of CC(C)N1CCN(c2ccc(Nc3ncc4c(n3)N3CCN=C3N(c3c(F)cccc3Cl)C4=O)cc2)CC1 . Value?
Out: 89

---

System: NCI-H1299 cells
Protocol description: MTT based cell viability assay on NCI-H1299 cells
Condition details: Homo sapiens, NCI-H1299, NCI-H1299 cells, read-out: IC50, growth inhibition of NCI-H1299 cells
Experimental: Determination of the cell growth inhibiting activity of 6-(2-chlorophenyl)-2-((4-(4-methylpiperazin-1-yl)phenyl)amino)-8,9-dihydroimidazo[1,2-a]pyrimido[5,4-e]pyrimidin-5(6H)-one and analogs on NCI-H1299 cells using a MTT based cell viability assay The thawed NCI-H1299 cells were cultured and passaged to the third generation, and the growth state was good and the confluence was about 90%, which began to be used in the experiment. […]
Experimental readout: IC50
Number plus unit, in that order.

In: Endpoint output: IC50 of Cc1cc(Nc2ncc3c(n2)N2CCN=C2N(c2c(F)cccc2Cl)C3=O)cc(Cl)c1N1CCN(C)CC1 [Example 125] . Value?
Out: 92.9 nM

In: Endpoint output: IC50 of Cc1cc(Nc2ncc3c(n2)N2CCN=C2N(c2c(Cl)cccc2Cl)C3=O)cc(Cl)c1N1CCN(C)CC1 [Example 151] . Value?
Out: 175 nM

In: Endpoint output: IC50 of COc1cc(Nc2ncc3c(n2)N2CCN=C2N(c2c(Cl)cccc2Cl)C3=O)cc(Cl)c1N1CCC(N(C)C)CC1 [Example 144] . Value?
Out: 140 nM

In: Endpoint output: IC50 of Cc1cc(Nc2ncc3c(n2)N2CCN=C2N(c2c(Cl)cccc2C(F)(F)F)C3=O)ccc1N1CCN(C)CC1 [Example 80] . Value?
Out: 978 nM

Consider now this further molecule.
In: Endpoint output: IC50 of CN1CCN(c2c(Cl)cc(Nc3ncc4c(n3)N3CCN=C3N(c3c(Cl)cccc3Cl)C4=O)cc2Cl)CC1 [Example 150] . Value?
Out: 347 nM

---

pIC50 listing for selected compounds.
System: NCI-H1299 cells
Protocol description: MTT based cell viability assay on NCI-H1299 cells
Condition details: Homo sapiens, NCI-H1299, NCI-H1299 cells, read-out: IC50, growth inhibition of NCI-H1299 cells
Please treat pIC50 as minus the base-10 logarithm of the molar concentration.

Recorded pIC50, per entry:
In: Endpoint output: pIC50 of Cc1cc(Nc2ncc3c(n2)N2CCN=C2N(c2c(Cl)cccc2Cl)C3=O)cc(C)c1N1CCN(C)CC1 . Value?
Out: 6.98

In: Endpoint output: pIC50 of Cc1cc(Nc2ncc3c(n2)N2CCN=C2N(c2c(Cl)cccc2Cl)C3=O)cc2c1CCN(C)C2 . Value?
Out: 7.23

In: Endpoint output: pIC50 of C[C@@H]1CN(c2ccc(Nc3ncc4c(n3)N3CCN=C3N(c3c(Cl)cccc3Cl)C4=O)cc2F)C[C@H](C)N1C . Value?
Out: 6.35

Further cases:
In: Endpoint output: pIC50 of Cc1cc(Nc2ncc3c(n2)N2CCN=C2N(c2c(Cl)cccc2Cl)C3=O)cc(Br)c1N1CCN(C)CC1 . Value?
Out: 6.82

In: Endpoint output: pIC50 of CN1CCC(Nc2ccc(Nc3ncc4c(n3)N3CCN=C3N(c3c(F)cccc3Cl)C4=O)cc2)CC1 . Value?
Out: 6.32

In: Endpoint output: pIC50 of C[C@@H]1CN(c2ccc(Nc3ncc4c(n3)N3CCN=C3N(c3c(Cl)cccc3Cl)C4=O)cc2C(F)(F)F)C[C@H](C)N1C . Value?
Out: 6.15

---

Tested on: NCI-H1299 cells
Protocol description: MTT based cell viability assay on NCI-H1299 cells
Condition details: Homo sapiens, NCI-H1299, NCI-H1299 cells, read-out: IC50, growth inhibition of NCI-H1299 cells
Mark 1 only for IC50 values smaller than 0.2 µM; exact matches and larger values are -1.

Please review the following examples before continuing.
In: Dear colleague, could you confirm whether IC50 of Cc1cc(Nc2ncc3c(n2)N2CCN=C2N(c2c(Cl)cccc2Cl)C3=O)ccc1N1C[C@@H](C)N(C)[C@@H](C)C1 falls below 0.2 µM? Thanks.
Out: -1

In: Dear colleague, could you confirm whether IC50 of Cc1cc(Nc2ncc3c(n2)N2CCN=C2N(c2c(F)cccc2Cl)C3=O)ccc1N1CCC(N(C)C)CC1 falls below 0.2 µM? Thanks.
Out: 1

In: Dear colleague, could you confirm whether IC50 of CN1CCN(c2c(F)cc(Nc3ncc4c(n3)N3CCN=C3N(c3c(Cl)cccc3Cl)C4=O)cc2Cl)CC1 falls below 0.2 µM? Thanks.
Out: -1

In: Dear colleague, could you confirm whether IC50 of Cc1cc(Nc2ncc3c(n2)N2CCN=C2N(c2c(C)cccc2Cl)C3=O)cc(C)c1N1CCN(C)CC1 falls below 0.2 µM? Thanks.
Out: 1

In: Dear colleague, could you confirm whether IC50 of Cc1cc(Nc2ncc3c(n2)N2CCN=C2N(c2c(Cl)cccc2Cl)C3=O)ccc1N1CCN(C)CC1 falls below 0.2 µM? Thanks.
Out: 1

Now examine the next entry.
In: Dear colleague, could you confirm whether IC50 of CN(C)C1CCN(c2ccc(Nc3ncc4c(n3)N3CCN=C3N(c3c(F)cccc3Cl)C4=O)cc2Br)CC1 falls below 0.2 µM? Thanks.
Out: 1

---

Inh. (%) of Wee1 kinase enzyme activity listing for selected compounds.
Experimental target: Wee1 (h) (Homo sapiens, UniProt P30291)
Sequence (P30291 whole entry): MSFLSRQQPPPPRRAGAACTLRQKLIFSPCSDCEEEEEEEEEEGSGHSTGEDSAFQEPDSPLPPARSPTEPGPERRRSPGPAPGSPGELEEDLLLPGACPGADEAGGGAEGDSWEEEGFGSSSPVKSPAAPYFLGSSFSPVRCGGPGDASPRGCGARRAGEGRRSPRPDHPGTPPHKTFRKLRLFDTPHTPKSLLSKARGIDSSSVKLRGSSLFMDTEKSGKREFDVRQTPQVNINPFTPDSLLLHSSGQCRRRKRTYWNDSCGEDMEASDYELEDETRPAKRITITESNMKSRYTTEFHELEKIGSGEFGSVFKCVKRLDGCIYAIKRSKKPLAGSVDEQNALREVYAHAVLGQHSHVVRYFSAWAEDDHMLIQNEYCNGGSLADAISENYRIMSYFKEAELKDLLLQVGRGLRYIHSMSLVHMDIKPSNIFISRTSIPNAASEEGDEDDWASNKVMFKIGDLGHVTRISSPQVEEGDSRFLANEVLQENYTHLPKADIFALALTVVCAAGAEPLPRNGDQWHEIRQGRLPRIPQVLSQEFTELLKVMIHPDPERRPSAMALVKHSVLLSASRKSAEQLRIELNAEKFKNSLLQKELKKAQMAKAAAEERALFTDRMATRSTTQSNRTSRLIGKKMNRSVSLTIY
Protocol description: Wee1 kinase (h) detection method, [γ-33P]-ATP filter assay
Format: biochemical
Condition details: C 1 μm compound
Please respond with the number in % and leave the unit unwritten.

Recorded Inh. (%) of Wee1 kinase enzyme activity, per entry:
In: Endpoint output: Inh. (%) of Wee1 kinase enzyme activity of Cc1cc(Nc2ncc3c(n2)N2CCN=C2N(c2c(Cl)cccc2Br)C3=O)cc(F)c1N1CCN(C)CC1 [Example 165] . Value?
Out: 92

In: Endpoint output: Inh. (%) of Wee1 kinase enzyme activity of CN(C)C1CCN(c2ccc(Nc3ncc4c(n3)N3CCN=C3N(c3c(F)cccc3Cl)C4=O)cc2)CC1 [Example 115] . Value?
Out: 96

In: Endpoint output: Inh. (%) of Wee1 kinase enzyme activity of C[C@@H]1CN(c2ccc(Nc3ncc4c(n3)N3CCN=C3N(c3c(F)cccc3Cl)C4=O)cc2)C[C@H](C)N1C [Example 34] . Value?
Out: 97

In: Endpoint output: Inh. (%) of Wee1 kinase enzyme activity of CN1CCN(c2ccc(Nc3ncc4c(n3)N3CCN=C3N(c3c(Cl)cccc3Cl)C4=O)cc2Cl)CC1 [Example 71] . Value?
Out: 98

In: Endpoint output: Inh. (%) of Wee1 kinase enzyme activity of CN(C)C1CCN(c2ccc(Nc3ncc4c(n3)N3CCN=C3N(c3c(Cl)cccc3Cl)C4=O)cc2Br)CC1 [Example 140] . Value?
Out: 98

Further cases:
In: Endpoint output: Inh. (%) of Wee1 kinase enzyme activity of CN1CCN(c2ccc(Nc3ncc4c(n3)N3CCN=C3N(c3c(Cl)cccc3Cl)C4=O)cc2)CC1 [Example 4] . Value?
Out: 97

In: Endpoint output: Inh. (%) of Wee1 kinase enzyme activity of Cc1cccc(C)c1N1C(=O)c2cnc(Nc3ccc(N4CCN(C)CC4)cc3)nc2N2CCN=C21 [Example 83] . Value?
Out: 94

In: Endpoint output: Inh. (%) of Wee1 kinase enzyme activity of CN(C)C1CCN(c2ccc(Nc3ncc4c(n3)N3CCN=C3N(c3c(Cl)cccc3Cl)C4=O)cc2)CC1 [Example 138] . Value?
Out: 96
